Consider the following variants; for each one, report its protein stability index.
B1: MYBL2 (parent)
chain: VKKSCWTEEEDRIICEAHKVLGNR

# Variants of: B1
# Assay Name: protein stability index of a GFP-peptide fusion (GPS, HEK-293T) (PSI 1-6); higher = more stable;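 also: lentivirally expressed fusions sorted by FACS into six bins by GFP to DsRed ratio, PSI derived from sequencing read proportions per bin multiplied by bin number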
# Run Conditions: c terminus: a fixed tail appended
Give bare numbers.

// solved cases for protein stability index follow
I14F 2.91
H18I 2.91
E16K 3.08
N23A 3.08
G22C 3.03

Parameter requested: protein stability index. Apply to each item below.
1. D11Q
2. D11G

Response:
1: 3; 2: 3.01
